Test system: guinea pig atrial muscle
protocol-summary: In vitro guinea pig atrial muscle contractile force measurement (Test Method I)
Type: cell-based
study-conditions: Cavia porcellus; calculated concentration required to increase the contractile force by 50% from the control level; isolated left atria, 30° C., mean of at least three tissues
pEC50: −log10 of the molar value. Where a name gives a salt, the structure may show the parent alone.
measurement-name: pEC50

>  <molecule>
Clc1ccc(-c2ccc(-c3ncc[nH]3)o2)cc1

>  <pEC50>
5.46

$$$$
>  <molecule>
Cc1cc(Br)ccc1-c1ccc(-c2ncc[nH]2)o1 [Example 31, Hydrochloride]

>  <pEC50>
5.72

$$$$
>  <molecule>
O=[N+]([O-])c1ccc(-c2ccc(-c3ncc[nH]3)o2)cc1

>  <pEC50>
3.59

$$$$
>  <molecule>
Cn1ccnc1-c1ccc(-c2ccccc2Br)o1

>  <pEC50>
4.68

$$$$
>  <molecule>
Brc1ccc(-c2ccc(-c3ncc[nH]3)o2)c(Br)c1

>  <pEC50>
5.10

$$$$

I: Fc1ccc(-c2ccc(-c3ncc[nH]3)o2)cc1
II: Fc1ccccc1-c1ccc(-c2ncc[nH]2)o1
Data request: Hi team, can someone confirm which has the larger pEC50: I or II ? Thanks. Answer by quoting the chosen item's label.
Data returned: II
(II: 5.14, I: 4.48)

a: CCn1ccnc1-c1ccc(-c2ccccc2Br)o1 [Example 30, Hydrochloride]
b: Cc1c[nH]c(-c2ccc(-c3ccccc3Br)o2)n1 [Example 32, Hydrochloride]
Data request: Could you tell me which of these two has the smaller pEC50 figure? First: a Second: b In your reply, give the label of the chosen option.
Data returned: a

Cited source for all entries: patent US4895867A
